Recorded pKb for the following compounds
# assay-summary: Antagonist activity at muscarinic M1/M4 receptor in New Zealanda white rabbit vas deferens assessed as effect on isometric tissue contraction
# Format: functional, Oryctolagus cuniculus

| item-smiles | value |
| --- | --- |
| Cc1ccc([C@H]2CCCN2C)o1 | <5 |
| Cc1ccc([C@@H]2CCCN2C)o1 | <5 |
| Cc1ccc([C@H]2CCC[N+]2(C)C)o1.[I-] | 5.67 |
| Cc1ccc([C@@H]2CCCN2)o1 | <5 |

Moving on to another compound below.
The value of pKb measured for the compound Cc1ccc([C@@H]2CCC[N+]2(C)C)o1.[I-] turned out to be 5.9

====

# test-target: Muscarinic acetylcholine receptor M4 (Homo sapiens, UniProt P08173)
# Sequence (P08173 whole entry): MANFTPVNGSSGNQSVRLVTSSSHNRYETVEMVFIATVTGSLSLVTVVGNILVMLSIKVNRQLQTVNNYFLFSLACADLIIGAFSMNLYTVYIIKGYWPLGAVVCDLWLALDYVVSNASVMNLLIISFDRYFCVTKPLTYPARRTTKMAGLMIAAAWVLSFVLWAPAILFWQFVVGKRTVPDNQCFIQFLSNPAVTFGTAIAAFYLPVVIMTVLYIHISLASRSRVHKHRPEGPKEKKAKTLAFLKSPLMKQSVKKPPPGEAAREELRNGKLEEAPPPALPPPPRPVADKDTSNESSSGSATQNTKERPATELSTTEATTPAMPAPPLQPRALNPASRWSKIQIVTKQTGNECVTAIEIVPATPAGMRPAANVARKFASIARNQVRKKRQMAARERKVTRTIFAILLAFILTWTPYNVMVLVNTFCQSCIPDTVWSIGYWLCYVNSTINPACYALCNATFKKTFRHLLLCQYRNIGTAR
Known pKi of a selection of molecules
pKi is defined as minus the log10 of a concentration measured in mol/L.

Solved cases below.
| molecule | test-target | pKi |
| --- | --- | --- |
| C[N+](C)(C)CC#CCOC(=O)Nc1cccc(Cl)c1 | Muscarinic acetylcholine receptor M4 (Homo sapiens, UniProt P08173) | 5.04 |
| Cc1ccc([C@@H]2CCCN2C)o1 | Muscarinic acetylcholine receptor M4 (Homo sapiens, UniProt P08173) | 4.32 |
| C[N+]1(C)CCC[C@H]1c1ccco1.[I-] | Muscarinic acetylcholine receptor M4 (Homo sapiens, UniProt P08173) | 4.67 |
| Cc1ccc(C2CCCN2)o1 (racemic) | Muscarinic acetylcholine receptor M4 (Homo sapiens, UniProt P08173) | 4.29 |
| C[N+]1(C)CCCC1c1ccco1.[I-] (racemic) | Muscarinic acetylcholine receptor M4 (Homo sapiens, UniProt P08173) | 5.19 |
| CN1CCCC1c1ccco1 (racemic) | Muscarinic acetylcholine receptor M4 (Homo sapiens, UniProt P08173) | 4.16 |

# value of pKi, Muscarinic acetylcholine receptor M4 (Homo sapiens, UniProt P08173), item Cc1ccc(C2CCCN2C)o1 (racemic) = 4.61

The molecule Cc1ccc([C@H]2CCC[N+]2(C)C)o1.[I-] , when measured on Muscarinic acetylcholine receptor M4 (Homo sapiens, UniProt P08173), yielded pKi of 4.86

====

log10 of Ki values for the compounds below.
# test-target: Muscarinic acetylcholine receptor M5 (Homo sapiens)
# Sequence (P08912 whole entry): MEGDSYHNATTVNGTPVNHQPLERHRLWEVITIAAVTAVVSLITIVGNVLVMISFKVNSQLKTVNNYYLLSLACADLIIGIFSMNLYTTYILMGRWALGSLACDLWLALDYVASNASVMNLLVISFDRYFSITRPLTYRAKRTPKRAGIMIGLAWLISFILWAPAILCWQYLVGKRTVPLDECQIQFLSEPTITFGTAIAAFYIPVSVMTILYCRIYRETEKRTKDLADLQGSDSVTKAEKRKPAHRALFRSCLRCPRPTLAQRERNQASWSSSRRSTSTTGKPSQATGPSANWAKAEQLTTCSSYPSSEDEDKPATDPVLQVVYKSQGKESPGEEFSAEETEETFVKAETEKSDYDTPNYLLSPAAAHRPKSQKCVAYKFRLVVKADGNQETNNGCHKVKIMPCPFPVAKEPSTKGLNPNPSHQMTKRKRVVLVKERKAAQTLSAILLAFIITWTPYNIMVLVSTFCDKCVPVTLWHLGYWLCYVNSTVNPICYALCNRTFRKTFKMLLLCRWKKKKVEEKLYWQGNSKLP
On a log10 scale: recorded Ki, unit µM.

| compound | value |
| --- | --- |
| Cc1ccc([C@@H]2CCC[N+]2(C)C)o1.[I-] | 0.56 |
| Cc1ccc([C@H]2CCCN2)o1 | 1.20 |
| Cc1ccc([C@@H]2CCCN2)o1 | 2.14 |

// sample Cc1ccc(C2CCCN2C)o1 (racemic) , its log10 of Ki was 1.34

Noted for CN1CCCC1c1ccco1 (racemic) : its log10 of Ki reads 1.65

Lab note: C[N+](C)(C)CC#CCOC(=O)Nc1cccc(Cl)c1 gave log10 of Ki of 0.58

log10 of Ki reading for C[N+]1(C)CCC[C@@H]1c1ccco1.[I-] : 1.37

According to the records, this compound C[N+]1(C)CCC[C@H]1c1ccco1.[I-] displays log10 of Ki of 1.32

log10 of Ki in this record for C[N+]1(C)CCCC1c1ccco1.[I-] (racemic) : 0.50

Reported log10 of Ki ( Cc1ccc(C2CCC[N+]2(C)C)o1.[I-] (racemic) ) = 0.67

Reported log10 of Ki ( CN1CCC[C@@H]1c1ccco1 ) = 1.88

Lab note: measured log10 of Ki of Cc1ccc(C[N+](C)(C)C)o1 was 0.84
